Assign GI50 to each entry below.
Tested on: CAKI-1
Test: NCI tumour cell line growth inhibition, 48 h
Activity calls are given as the source filed them. Rule as the data show it: active = GI50 up to about 1.1 µM and inactive = higher.

molecule	observable	result
COc1cc(C2SCC(=O)N2c2ccccn2)cc(OC)c1OC (stereo not given)	GI50	> 100 µM (inactive)
Cc1cccc(C)c1NC(=O)C(=O)CC(=O)c1cccc([N+](=O)[O-])c1	GI50	> 100 µM (inactive)
O=P(O)(Cc1ccccc1)OCC1(O)OCC(O)C(O)C1O (stereo not given)	GI50	> 10 µM (inactive)

The following molecules each have a reported value; give each one's GI50.
1. CCc1cccc(CC)c1Nc1nc2c(s1)C(=O)c1ccccc1C2=O
2. O=c1c(-c2ccccc2)c(SCCO)n(-c2ccccc2)c(=S)n1-c1ccccc1
3. O=C(c1cc2ccccc2[nH]1)N1C2CCC1CN(CCOC(c1ccc(F)cc1)c1ccc(F)cc1)CC2 (stereo not given)
4. O=C1CCc2cc(Br)ccc2O1
5. COc1ccc(C2c3cc4c(cc3OC(O)(CO)C2C(=O)O)OCO4)c(OC)c1OC.COc1ccc(C2c3cc4c(cc3OC3(O)COC(=O)C23)OCO4)c(OC)c1OC (stereo not given)
6. O=C(O)CNCc1c2ccccc2nc2ccccc12
7. COc1ccc2nc3ccc(OC)cc3c([S+]([O-])CCCl)c2c1 (stereo not given)

Result:
1. 16.4 µM (inactive)
2. > 100 µM (inactive)
3. 6.81 µM (inactive)
4. 38.4 µM (inactive)
5. 65.8 µM (inactive)
6. 35.7 µM (inactive)
7. 2.62 µM (inactive)

----------
Test system: HT-29
Test: NCI tumour cell line growth inhibition, 48 h
Counter-ions that a name gives are not always drawn. Active and inactive are the calls of the source. Cut-off read from the data, not from the text of the source: active = GI50 up to about 1.1 µM and inactive = higher.
Your response should consist of one outcome taken from yes = active, no = inactive

compound	category_label
C/C(=C\[C@H]1C[C@@H]([C@@H]2CC[C@]34C[C@]23C=C[C@@H]2[C@@]3(C)CC=C5C[C@@H](c6ccccc6)OC[C@]5(C)[C@@H]3C[C@@H](O)[C@]24C)C(=O)O1)CO	no
Cc1ccsc1C(=S)Nc1ccc(Cl)c(/C=N/OC(C)C)c1	no
CCN(CC)CCNc1ccc(C)c2sc3ccccc3c(=O)c12 [LUCANTHONE HYDROCHLORIDE]	no
COc1ccc(-n2c(C)nc3ccc(NC4OCC(OC(C)=O)C(OC(C)=O)C4OC(C)=O)cc3c2=O)cc1 (stereo not drawn)	no

Problem: Recorded test call requested for "N[C@H]1CCN(c2c(F)cc3c(=O)c(C(=O)O)cn4c3c2Oc2c-4ccc3c2ccc2ccccc23)C1"
Result: yes

Problem: Recorded test call requested for "CC(C)N/C(=N\C#N)NS(=O)(=O)c1cnccc1NC1CCCCCCC1"
Result: no

Problem: Recorded test call requested for CC(NC(C#N)CC12CC3CC(CC(C3)C1)C2)c1ccccc1 (stereo not drawn)
Result: no

Problem: Recorded test call requested for "Cn1c2ccccc2c2[nH]c3ccccc3c(=O)c21"
Result: no

----------
Tested on: T47D
Assay: NCI tumour cell line growth inhibition, 48 h
Active and inactive are the calls of the source. Rule as the data show it: active = GI50 up to about 1.1 µM and inactive = higher.
observable: GI50

The following molecules each have a reported value; give each one's GI50.
1. O=c1[nH]nc(-c2ccccc2)c2[nH]c3c(c12)Cc1ccccc1-3
2. NC(=S)NN=Cc1ccccc1OCc1cccc(COc2ccccc2C=NNC(N)=S)n1
3. COc1ccc(C(=O)/C(Br)=C/C(=O)O)cc1
4. O=C1CN2CCN(CC2)CC(=O)Nc2ccc(cc2)S(=O)(=O)c2ccc(cc2)NC(=O)CN2CCN(CC2)CC(=O)Nc2ccc(cc2)S(=O)(=O)c2ccc(cc2)N1

Result:
1: > 100 µM (inactive); 2: > 38.2 µM (inactive); 3: 53.2 µM (inactive); 4: 67.6 µM (inactive)

----------
Test system: M19-MEL
Assay: NCI tumour cell line growth inhibition, 48 h
Calls of active or inactive are those of the source. Cut-off read from the data, not from the text of the source: active = GI50 up to about 1.1 µM and inactive = higher.
Your response should consist of one outcome taken from YES for active, NO for inactive

compound	category_label
COc1ccc(C2c3cc4c(cc3OC(O)(CO)C2C(=O)O)OCO4)c(OC)c1OC.COc1ccc(C2c3cc4c(cc3OC3(O)COC(=O)C23)OCO4)c(OC)c1OC (stereo unspecified)	NO
C[C@]12CC[C@H](O)C=C1CC[C@@H]1[C@@H]2CC[C@]2(C)C(c3ccc(=O)oc3)CC[C@]12O (stereo partly specified)	YES
COc1ccccc1NC(=O)CC(=O)NNCC(=O)Nc1nnc(-c2ccccc2)o1	NO
Cc1cccc(C)c1NC(=O)C(=O)CC(=O)c1cccc([N+](=O)[O-])c1	NO
COc1ccc2c(c1)c1cc(OC)ccc1n2CCCCOc1ccc(-c2c3ccccc3c(-c3ccc(OCCCCn4c5ccc(OC)cc5c5cc(OC)ccc54)cc3)c3ccccc23)cc1	NO

Problem: Recorded test call requested for "Cc1ccc(S(=O)(=O)SCc2ccccc2)cc1"
Result: NO

Problem: Recorded test call requested for "COc1cc2c(OC)cc1CSCc1sc(C)c(c1Br)CSC2"
Result: NO

Problem: Recorded test call requested for c1ccc2c(c1)Sc1ccccc1N2C1CN2CCC1CC2 (stereo unspecified)
Result: NO

Problem: Recorded test call requested for "O=C(/C=C1/NC(=O)CS1)Nc1ccccc1"
Result: NO

Problem: Recorded test call requested for "CC(C)(C)c1cc(Cc2ccc([N+](C)(C)C)cc2)c(O)c(C(C)(C)C)c1"
Result: NO

----------
Tested on: HOP-18
Test: NCI tumour cell line growth inhibition, 48 h
The source made the active and inactive calls. No stated cut-off is given here; in the data, active = GI50 up to about 1.1 µM and inactive = higher.
Your response should consist of one outcome taken from True for active, False for inactive

Study these solved cases before continuing.
In [3]: df
Out[3]:
                                   compound  category_label
0  C=CCN(N=O)C(=O)NCCCCC(NC(C)=O)C(=O)NCc1ccccc1 (configuration not stated)           False
1  N#C/C(=C\c1c[nH]c2ccccc12)C(=O)c1ccc(O)c(O)c1           False
2  C=C1C(=O)OC2C1CC1OC2C(C)CCC/C(C)=C\CCC1(C)O (configuration not stated)           False
3            Cc1ccc(S(=O)(=O)SCc2ccccc2)cc1           False
4  COC(=O)CCC(NC(=S)N/N=C(\C)c1ccc[nH]1)C(=O)OC (configuration not stated)           False
5    CCCCCCCCCCCC[N+](CCCCCCCCCCCC)=C1SCCS1           False
6  [Zn+2][N+]12CCN3CCN4CCN(CC1)[PH]432 (configuration not stated)           False
7                      O=CN/C=C/c1cccc(O)c1           False

Problem: Recorded test call requested for C[C@]12CC[C@H](O)C=C1CC[C@@H]1[C@@H]2CC[C@]2(C)C(c3ccc(=O)oc3)CC[C@]12O (some centres not stated)
Result: True

Problem: Recorded test call requested for c1ccc2c(c1)Sc1ccccc1N2C1CN2CCC1CC2 (configuration not stated)
Result: False

Problem: Recorded test call requested for COc1ccc(C2=C(Cl)c3cc(OC)c(OC)cc3C2OC)cc1OC (configuration not stated)
Result: False

----------
System: NCI-H23
Assay: NCI tumour cell line growth inhibition, 48 h
The source made the active and inactive calls. Cut-off read from the data, not from the text of the source: active = GI50 up to about 1.1 µM and inactive = higher.
Assign GI50 to each entry below.

>>> print(df.to_string())
                                  molecule  observable              result
0  Cc1ccsc1C(=S)Nc1ccc(Cl)c(/C=N/OC(C)C)c1        GI50  20.1 µM (inactive)

The following molecules each have a reported value; give each one's GI50.
1. COc1nc2ccc(CNc3ccc(C(=O)O)cc3)cc2nc1OC
2. C=CCN(N=O)C(=O)N(CCC)CCCC(NC(C)=O)C(=O)NCc1ccccc1 (stereo not drawn)
3. COc1ccc(CCN2CCN(CCCc3ccccc3)CC2)cc1
4. CC(C)=CCC[C@@H](C)c1c2ncc[nH]c-2c(C)c(=O)c1O
5. CN(C)CCCN1c2ccc([N+](=O)[O-])cc2CCc2cccc([N+](=O)[O-])c21
6. O=c1nc2occc2cn1C1CC(O)C(CO)O1 (stereo not drawn)

Result:
1. > 10 µM (inactive)
2. > 100 µM (inactive)
3. 64.3 µM (inactive)
4. 22.4 µM (inactive)
5. 15.9 µM (inactive)
6. > 100 µM (inactive)

----------
Tested on: A549
Assay: NCI tumour cell line growth inhibition, 48 h
Counter-ions that a name gives are not always drawn. Calls of active or inactive are those of the source. No stated cut-off is given here; in the data, active = GI50 up to about 1.1 µM and inactive = higher.
observable: GI50

Below, 5 compounds whose answers are already recorded.
>>> df
                                   compound               result
0  Cc1cccc(C)c1NC(=O)C(=O)CC(=O)c1cccc([N+](=O)[O-])c1  > 100 µM (inactive)
1            CCOC(=O)C(=O)Nc1c(C)cccc1C(C)C  > 100 µM (inactive)
2  COc1cc(C2SCC(=O)N2c2ccccn2)cc(OC)c1OC (configuration not stated)  > 100 µM (inactive)
3  CCN(CC)CCNc1ccc(C)c2sc3ccccc3c(=O)c12 [LUCANTHONE HYDROCHLORIDE]   2.61 µM (inactive)
4              C=C(CN(C)C)C(=O)c1cc(C)ccc1C   19.7 µM (inactive)

The following compounds each have a reported value; give each one's GI50.
1. COc1cccc(N2C(=O)C3c4[nH]c5ccc(C)cc5c4C4CCC(C)CC4C3C2=O)c1 (configuration not stated)
2. CCCC[N+](CCCC)(CCCC)CCCC.O=S(=O)([O-])ON=C1c2ccccc2-c2ccccc21
3. OCC1OC(NC(=S)NCCC(F)(F)C(F)(F)C(F)(F)C(F)(F)C(F)(F)C(F)(F)F)C(O)C(O)C1O (configuration not stated)

Result:
> 100 µM (inactive)
> 100 µM (inactive)
> 100 µM (inactive)
